Biological target: T1, EsCas13d, nuclease-dead (Eubacterium siraeum, UniProt B0MS50, R295A;H300A;R849A;H854A)
T1 sequence: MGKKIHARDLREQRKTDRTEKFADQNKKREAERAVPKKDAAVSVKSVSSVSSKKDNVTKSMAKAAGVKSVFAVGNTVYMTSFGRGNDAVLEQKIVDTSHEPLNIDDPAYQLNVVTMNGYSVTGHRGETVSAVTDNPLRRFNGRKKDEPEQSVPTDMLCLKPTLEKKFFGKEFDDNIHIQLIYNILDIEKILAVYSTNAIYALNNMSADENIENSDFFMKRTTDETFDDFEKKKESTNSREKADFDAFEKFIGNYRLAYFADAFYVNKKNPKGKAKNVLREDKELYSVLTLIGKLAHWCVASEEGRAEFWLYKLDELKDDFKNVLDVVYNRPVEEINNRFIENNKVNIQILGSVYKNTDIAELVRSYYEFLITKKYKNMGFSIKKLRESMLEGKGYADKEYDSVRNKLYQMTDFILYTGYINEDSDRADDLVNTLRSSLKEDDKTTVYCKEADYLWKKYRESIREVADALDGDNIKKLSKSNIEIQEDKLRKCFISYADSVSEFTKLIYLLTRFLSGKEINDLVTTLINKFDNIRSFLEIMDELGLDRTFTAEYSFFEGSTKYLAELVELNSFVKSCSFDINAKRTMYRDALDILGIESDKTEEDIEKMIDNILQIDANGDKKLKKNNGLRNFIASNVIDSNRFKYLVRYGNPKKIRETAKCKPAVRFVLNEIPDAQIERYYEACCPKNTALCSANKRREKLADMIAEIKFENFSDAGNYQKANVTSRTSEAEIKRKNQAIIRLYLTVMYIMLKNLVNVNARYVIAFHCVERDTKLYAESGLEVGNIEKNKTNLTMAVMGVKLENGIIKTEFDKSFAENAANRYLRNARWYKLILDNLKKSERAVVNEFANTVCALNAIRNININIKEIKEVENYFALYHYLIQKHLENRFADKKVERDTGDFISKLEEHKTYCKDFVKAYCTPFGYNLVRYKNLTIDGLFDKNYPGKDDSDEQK
Experiment: crRNA (strand 1, pre-loaded); Mg2+; 40 mM Tris-HCl pH 7.5, 150 mM NaCl, 6 mM MgCl2, 1 mM DTT, 0.1% Tween-20, 0.2 mg/ml BSA; 25 C; 10 min per concentration, then washed
Conditions: tags: His6-TwinStrep-SUMO cleaved; N-terminal SNAP kept (SNAP-Surface 488); label: 3' end held by stalled T7 RNA polymerase
value kind: Kd (nM)
Give bare numbers, in nM.

These solved cases illustrate the format of a correct answer.
• target 2 MT 5'PFS GUG 3'PFS AGG (mixed) RNA 1: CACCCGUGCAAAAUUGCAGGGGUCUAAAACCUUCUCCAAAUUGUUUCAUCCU RNA 2: GGGAAUGGAUCCACAUCUACGAAUUCGUGAGGAUGAAACAAUUUGGAGAAGAGGAGAUCGGAAGAGCACACGU = 11
• target 3 insA 3' of 7,insG 3' of 7 (mixed) RNA 1: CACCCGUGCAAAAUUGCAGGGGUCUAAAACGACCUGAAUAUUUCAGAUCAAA RNA 2: GGGAAUGGAUCCACAUCUACGAAUUCGUUUUUGAUCUGAAAUAUUAGCAGGUCUGCAGAUCGGAAGAGCACACGU = 30.4

Provide each entry's Kd from the list below.
1. target 2 MT 5'PFS GCU 3'PFS AUA (mixed) RNA 1: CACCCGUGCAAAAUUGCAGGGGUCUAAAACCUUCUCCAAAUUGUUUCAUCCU RNA 2: GGGAAUGGAUCCACAUCUACGAAUUCGCUAGGAUGAAACAAUUUGGAGAAGAUAAGAUCGGAAGAGCACACGU
2. target 1 A9U,U19C (mixed) RNA 1: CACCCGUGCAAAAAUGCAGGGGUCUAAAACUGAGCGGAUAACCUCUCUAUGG RNA 2: GGGAAUGGAUCCACAUCUACGAAUUCGUACCACAGAGAGGUUUUCCGCUCACCGAGAUCGGAAGAGCACACGU

1. 8.9
2. 26.3
